# Experiment: Mouse microsome stability
# Format: in vitro ADME
# Condition Label: mouse microsomes, 0.5 mg/mL microsomes, NADPH cofactors, 37°C

{"Compound": "OC1CC(c2cc(N3CCC(CCc4ccccc4)CC3)ncn2)C1 (stereo not shown)", "Display Unit": "h", "half-life at 2 µM": 1.25}

----------
# Experiment: Pharmacokinetics in mice (serum/plasma and brain)
# Type: in vivo, CD-1 mice
# Condition Label: female, CD-1, mouse, ip; brain tissue; single 10 mg/kg intraperitoneal, CD1 mice; read-out: half-life (T1/2)
Measured Metric: half-life (h)

{"Compound": "OC1CC(c2cc(N3CCC(CCc4ccccc4)CC3)ncn2)C1 (stereo not shown) [compound 1]", "Observed": 4.92}

----------
# Experiment: Pharmacokinetics in mice (serum/plasma and brain)
# Assay type: in vivo, CD-1 mice
# Condition Label: female, CD-1, mouse, ip; serum/plasma; single 10 mg/kg intraperitoneal, CD1 mice; read-out: half-life (T1/2)
Measured Metric: half-life (min)

{"Molecule": "OC1CC(c2cc(N3CCC(CCc4ccccc4)CC3)ncn2)C1 (stereo not shown)", "Observed": 23}

----------
# Experiment: Protein binding analysis, brain
# Format: in vitro ADME
# Condition Label: read-out: Corrected % Protein binding (converted)

{"Molecule": "OC1CC(c2cc(N3CCC(CCc4ccccc4)CC3)ncn2)C1 (stereo not shown) [compound 1]", "fraction unbound at 6 h, 5 µM": 0.0112}

----------
# Experiment: Protein binding analysis, plasma
# Type: in vitro ADME
# Condition Label: mouse, mouse plasma diluted 1:10 with PBS, uncorrected (plasma diluted 1:10), read-out: % Protein binding (converted)

{"Compound": "OC1CC(c2cc(N3CCC(CCc4ccccc4)CC3)ncn2)C1 (stereo not shown)", "fraction unbound at 6 h, 5 µM": 0.227}

----------
# Experiment: Pharmacokinetics in mice (serum/plasma and brain)
# Assay type: in vivo, CD-1 mice
# Condition Label: female, CD-1, mouse, ip; serum/plasma; single 10 mg/kg intraperitoneal, CD1 mice
Measured Metric: Cmax (ng/mL)

{"Molecule": "OC1CC(c2cc(N3CCC(CCc4ccccc4)CC3)ncn2)C1 (stereo not shown) [compound 1]", "Display Unit": "ng/mL", "Observed": 491}

----------
# Experiment: Protein binding analysis, brain
# Type: in vitro ADME
# Condition Label: uncorrected

{"Molecule": "OC1CC(c2cc(N3CCC(CCc4ccccc4)CC3)ncn2)C1 (stereo not shown)", "fraction unbound": 0.1}

----------
# Experiment: Protein binding analysis, plasma
# Assay type: in vitro ADME
# Condition Label: mouse, mouse plasma diluted 1:10 with PBS, read-out: Corrected % Protein binding (converted)

{"Molecule": "OC1CC(c2cc(N3CCC(CCc4ccccc4)CC3)ncn2)C1 (stereo not shown)", "fraction unbound at 6 h, 5 µM": 0.0285}

----------
# Experiment: Pharmacokinetics in mice (serum/plasma and brain)
# Format: in vivo, CD-1 mice
# Condition Label: female, CD-1, mouse, ip; brain tissue; single 10 mg/kg intraperitoneal, CD1 mice

{"Compound": "OC1CC(c2cc(N3CCC(CCc4ccccc4)CC3)ncn2)C1 (stereo not shown)", "Display Unit": "ng/g", "Cmax": 2000}
